Reported MIC is given for each of the following compounds.
test system: S. agalactiae; experiment: Broth microdilution MIC (Example 11); conditions: Streptococcus agalactiae, S. agalactiae MMX 3741; ERY^R CC^R
Observed Property: MIC (µg/mL)

1. CC1(C)S[C@@H]2[C@H](NC(=O)Cc3ccccc3)C(=O)N2[C@H]1C(=O)O: 0.03
2. CN[C@H](CC(C)C)C(=O)N[C@H]1C(=O)N[C@@H](CC(N)=O)C(=O)N[C@H]2C(=O)N[C@H]3C(=O)N[C@H](C(=O)N[C@H](C(=O)O)c4cc(O)cc(O)c4-c4cc3ccc4O)[C@H](O)c3ccc(c(Cl)c3)Oc3cc2cc(c3O[C@@H]2O[C@H](CO)[C@@H](O)[C@H](O)[C@H]2O[C@H]2C[C@](C)(N)[C@H](O)[C@H](C)O2)Oc2ccc(cc2Cl)[C@H]1O: 0.5
3. C[C@H]1COc2c(N3CCN(C)CC3)c(F)cc3c(=O)c(C(=O)O)cn1c23 [Levofloxacin, reference compound]: 0.5
4. CC[C@H]1OC(=O)[C@H](C)[C@@H](O[C@H]2C[C@@](C)(OC)[C@@H](O)[C@H](C)O2)[C@H](C)[C@@H](O[C@@H]2O[C@H](C)C[C@H](N(C)C)[C@H]2O)[C@](C)(O)C[C@@H](C)C(=O)[C@H](C)[C@@H](O)[C@]1(C)O: 8
5. CC(S)C(C)S.[Bi] (stereo not shown): 0.25
6. C[C@@H](O)[C@H]1C(=O)N2C(C(=O)O)=C(S[C@@H]3CN[C@H](C(=O)N(C)C)C3)[C@H](C)[C@H]12 [Meropenem, reference compound]: 0.03

---

tested on: Klebsiella pneumoniae; test: Broth microdilution MIC (Example 12); details: K. pneumoniae CDC 113; ESBL/KPC
Observed Property: MIC (µg/mL)

1. C[C@H]1COc2c(N3CCN(C)CC3)c(F)cc3c(=O)c(C(=O)O)cn1c23: 4
2. NCC[C@H](O)C(=O)N[C@@H]1C[C@H](N)[C@@H](O[C@H]2O[C@H](CN)[C@@H](O)[C@H](O)[C@H]2O)[C@H](O)[C@H]1O[C@H]1O[C@H](CO)[C@@H](O)[C@H](N)[C@H]1O: 16

---

test system: Escherichia coli; experiment: Broth microdilution MIC (Example 11); conditions: E. coli MMX 8424, ESBL, CAZ^R
# MIC per record follows
Observed Property: MIC

1. C[C@H]1COc2c(N3CCN(C)CC3)c(F)cc3c(=O)c(C(=O)O)cn1c23 [Levofloxacin, reference compound]: 0.06 µg/mL
2. CC(C)(O/N=C(\C(=O)N[C@@H]1C(=O)N2C(C(=O)[O-])=C(C[n+]3ccccc3)CS[C@H]12)c1csc(N)n1)C(=O)O: 16 µg/mL
3. C[C@@H](O)[C@H]1C(=O)N2C(C(=O)O)=C(S[C@@H]3CN[C@H](C(=O)N(C)C)C3)[C@H](C)[C@H]12 [Meropenem, reference compound]: 0.03 µg/mL
4. CC(S)C(C)S.[Bi] (stereo not shown): 0.5 µg/mL

---

tested on: S. agalactiae; assay: Broth microdilution MIC (Example 11); conditions: Streptococcus agalactiae, S. agalactiae MMX 4079; ERY^R CC^R Pen^R MEM^R
Observed Property: MIC (µg/mL)

1) CN[C@H](CC(C)C)C(=O)N[C@H]1C(=O)N[C@@H](CC(N)=O)C(=O)N[C@H]2C(=O)N[C@H]3C(=O)N[C@H](C(=O)N[C@H](C(=O)O)c4cc(O)cc(O)c4-c4cc3ccc4O)[C@H](O)c3ccc(c(Cl)c3)Oc3cc2cc(c3O[C@@H]2O[C@H](CO)[C@@H](O)[C@H](O)[C@H]2O[C@H]2C[C@](C)(N)[C@H](O)[C@H](C)O2)Oc2ccc(cc2Cl)[C@H]1O [vancomycin]: 2
2) C[C@@H](O)[C@H]1C(=O)N2C(C(=O)O)=C(S[C@@H]3CN[C@H](C(=O)N(C)C)C3)[C@H](C)[C@H]12 [Meropenem, reference compound]: 8
3) C[C@H]1COc2c(N3CCN(C)CC3)c(F)cc3c(=O)c(C(=O)O)cn1c23 [Levofloxacin, reference compound]: 1

---

system: Escherichia coli; experiment: Broth microdilution MIC (Example 12); conditions: E. coli CDC 503; ESBL/NDM
Collected MIC values appear next to each entry.
Observed Property: MIC

1) NCC[C@H](O)C(=O)N[C@@H]1C[C@H](N)[C@@H](O[C@H]2O[C@H](CN)[C@@H](O)[C@H](O)[C@H]2O)[C@H](O)[C@H]1O[C@H]1O[C@H](CO)[C@@H](O)[C@H](N)[C@H]1O: >64 µg/mL
2) C[C@@H](O)[C@H]1C(=O)N2C(C(=O)O)=C(S[C@@H]3CN[C@H](C(=O)N(C)C)C3)[C@H](C)[C@H]12: 8 µg/mL
3) C[C@H]1COc2c(N3CCN(C)CC3)c(F)cc3c(=O)c(C(=O)O)cn1c23: >8 µg/mL
4) CC(C)(O/N=C(\C(=O)N[C@@H]1C(=O)N2C(C(=O)[O-])=C(C[n+]3ccccc3)CS[C@H]12)c1csc(N)n1)C(=O)O: >64 µg/mL

---

tested on: vancomycin-intermediate Staphylococcus aureus (VISA); experiment: Broth microdilution MIC (Example 12); details: S. aureus NRS 1 (hVISA)
Observed Property: MIC

1. CC(=O)NC[C@H]1CN(c2ccc(N3CCOCC3)c(F)c2)C(=O)O1: 1 µg/mL
2. CCCCCCCCCC(=O)NC(Cc1c[nH]c2ccccc12)C(=O)NC(CC(N)=O)C(=O)NC(CC(=O)O)C(=O)NC1C(=O)NCC(=O)NC(CCCN)C(=O)NC(CC(=O)O)C(=O)NC(C)C(=O)NC(CC(=O)O)C(=O)NCC(=O)NC(CO)C(=O)NC(C(C)CC(=O)O)C(=O)NC(CC(=O)c2ccccc2N)C(=O)OC1C (centres unmarked): 1 µg/mL
3. C[C@H]1COc2c(N3CCN(C)CC3)c(F)cc3c(=O)c(C(=O)O)cn1c23: 4 µg/mL
4. CN[C@H](CC(C)C)C(=O)N[C@H]1C(=O)N[C@@H](CC(N)=O)C(=O)N[C@H]2C(=O)N[C@H]3C(=O)N[C@H](C(=O)N[C@H](C(=O)O)c4cc(O)cc(O)c4-c4cc3ccc4O)[C@H](O)c3ccc(c(Cl)c3)Oc3cc2cc(c3O[C@@H]2O[C@H](CO)[C@@H](O)[C@H](O)[C@H]2O[C@H]2C[C@](C)(N)[C@H](O)[C@H](C)O2)Oc2ccc(cc2Cl)[C@H]1O: 4 µg/mL
5. CCC[C@@H]1C[C@@H](C(=O)N[C@@H]([C@H]2O[C@H](SC)[C@H](O)[C@@H](O)[C@H]2O)[C@H](C)Cl)N(C)C1: >8 µg/mL

---

assay: Particle size distribution of BisEDT samples vs processing conditions (Table 111); format: physicochemical; details: BisEDT sample
Examples of molecules with documented D (90) follow.
Observed Property: D (90) (μm)

1) C1C[S][Bi]([S]CC[S][Bi]2[S]CC[S]2)[S]1 [Sample 10]: 1.7
2) C1C[S][Bi]([S]CC[S][Bi]2[S]CC[S]2)[S]1 [Sample 8]: 1.8
3) C1C[S][Bi]([S]CC[S][Bi]2[S]CC[S]2)[S]1 [Sample 13]: 2.1
4) C1C[S][Bi]([S]CC[S][Bi]2[S]CC[S]2)[S]1 [Sample 5]: 1.6
5) C1C[S][Bi]([S]CC[S][Bi]2[S]CC[S]2)[S]1 [Sample 14]: 2.1
6) C1C[S][Bi]([S]CC[S][Bi]2[S]CC[S]2)[S]1 [Sample 4]: 3.1
7) C1C[S][Bi]([S]CC[S][Bi]2[S]CC[S]2)[S]1 [Sample 9]: 1.9
8) C1C[S][Bi]([S]CC[S][Bi]2[S]CC[S]2)[S]1 [Sample 7]: 1.6
9) C1C[S][Bi]([S]CC[S][Bi]2[S]CC[S]2)[S]1 [Sample 12]: 2.4
10) C1C[S][Bi]([S]CC[S][Bi]2[S]CC[S]2)[S]1 [Sample 6]: 1.8
11) C1C[S][Bi]([S]CC[S][Bi]2[S]CC[S]2)[S]1 [Sample 15]: 1.6
12) C1C[S][Bi]([S]CC[S][Bi]2[S]CC[S]2)[S]1 [Sample 2]: 3.9
13) C1C[S][Bi]([S]CC[S][Bi]2[S]CC[S]2)[S]1.SCCS [Sample 1]: 5.9
14) C1C[S][Bi]([S]CC[S][Bi]2[S]CC[S]2)[S]1.SCCS [Sample 3]: 4.5
15) C1C[S][Bi]([S]CC[S][Bi]2[S]CC[S]2)[S]1 [Sample 11]: 2.4

---

system: S. agalactiae; experiment: Broth microdilution MIC (Example 11); conditions: Streptococcus agalactiae, S. agalactiae MMX 4079; ERY^R CC^R Pen^R MEM^R
Observed Property: MIC (µg/mL)

1. CC(S)C(C)S.[Bi] (stereo not drawn) [BisBDT, bismuth-2,3-butanedithiol]: 0.5
2. CC1(C)S[C@@H]2[C@H](NC(=O)Cc3ccccc3)C(=O)N2[C@H]1C(=O)O [Penicillin]: 2
